- experiment-description: Determination of bio-accumulation: urinary clearance pharmacokinetic study in rats
- assay-conditions: parent compound recovered in urine after 96 h, oral gavage, 73 micro Moles per kg body weight
assay-endpoint: % Recovery (96 h) (%)
Give just the number in %; leave the unit off.

| compound | reading-unit | reported-value |
| --- | --- | --- |
| N.O=C(O)C(F)(F)C(F)(F)OC(F)(F)C(F)(F)C(F)(F)C(F)(F)F | % | 42 |
| N.O=C(O)C(F)(F)OC(F)(F)C(F)(F)C(F)(F)OC(F)(F)F [Compound 4, CF3—(OCF2)3—OCF2—COONH4] | % | 50 |
| N.O=C(O)C(F)(F)C(F)(F)OC(F)(F)F | % | 100 |
| N.O=C(O)C(F)(F)OC(F)(F)C(F)(F)C(F)(F)F | % | 97 |

The value of % Recovery (96 h) measured for the compound N.O=C(O)C(F)(F)C(F)(F)C(F)(F)OC(F)C(F)(F)F (stereo not shown) turned out to be 95

The value of % Recovery (96 h) measured for the compound N.O=C(O)C(F)OC(F)(F)C(F)(F)C(F)(F)OC(F)(F)F (stereo not shown) turned out to be 95

The value of % Recovery (96 h) measured for the compound N.O=C(O)C(F)(F)C(F)OC(F)(F)C(F)(F)C(F)(F)OC(F)(F)F (stereo not shown) turned out to be 84
